- Tested on: A673/TR/shEF
- protocol.summary: cell viability (LOESS-normalised, relative to median of negative controls) (log2 ratio); higher = more viable cells (less compound effect), active = hit call of the paper (over 3 MAD below the median)
- measurement.setup: 0.926 µM; library screen: screen3; EWS-FLI1 expression: low (doxycycline-induced shRNA knockdown); treatment time: 72 h
Hit rate of the full screen: of about 3,200 compounds, about 300 (9.4%) showed activity. Many of the other results were omitted from the sample, so actives are more common in it than they were.
Record form. Attribute: cell viability (log2). Fill in for each entry.
Please state the value as a number alone, without comment.

Tell me reported cell viability (log2) for CCN(CCO)CCCOc1ccc2c(Nc3cc(CC(=O)Nc4cccc(F)c4)[nH]n3)ncnc2c1 , tested with A673/TR/shEF.
-0.0458

Tell me reported cell viability (log2) for CC(C(=O)O)c1cccc(C(=O)c2ccccc2)c1 (configuration not stated) , tested with A673/TR/shEF.
0.058

Tell me reported cell viability (log2) for C#Cc1cccc(Nc2ncnc3cc(OCCOC)c(OCCO)cc23)c1 , tested with A673/TR/shEF.
0.063

Tell me reported cell viability (log2) for CCCCCCCCCC(=O)N[C@@H](Cc1c[nH]c2ccccc12)C(=O)N[C@@H](CC(N)=O)C(=O)N[C@@H](CC(=O)O)C(=O)NC1C(=O)NCC(=O)N[C@@H](CCCN)C(=O)N[C@@H](CC(=O)O)C(=O)N[C@H](C)C(=O)N[C@@H](CC(=O)O)C(=O)NCC(=O)N[C@H](CO)C(=O)N[C@@H](C(C)CC(=O)O)C(=O)N[C@@H](CC(=O)c2ccccc2N)C(=O)OC1C (some centres not stated) , tested with A673/TR/shEF.
0.0444

Tell me reported cell viability (log2) for O=C(c1cc(Cc2n[nH]c(=O)c3ccccc23)ccc1F)N1CCN(C(=O)C2CC2)CC1 , tested with A673/TR/shEF.
0.0508

Tell me reported cell viability (log2) for CCCCCCCCCCC[C@@H](C[C@@H]1OC(=O)[C@H]1CCCCCC)OC(=O)[C@H](CC(C)C)NC=O , tested with A673/TR/shEF.
0.0194

Tell me reported cell viability (log2) for NCCCCCC(=O)O , tested with A673/TR/shEF.
0.0768
